Data origin, for the record: patent US6495699B2

- run_description: LogP
- Assay type: physicochemical
quantity: logP
I only need the number, thanks.

Examples with their reported logP follow.
{"molecule": "CC(C)(C)[C@@H](CO)NC(=O)[C@@H](CC(=O)O)n1ccc(-c2ccc(-c3ccncc3)cc2)c1", "logP": 0.11}
{"molecule": "CC(C)(C)[C@H](NC(=O)[C@@H](CC(=O)O)n1ccc(-c2ccc(-c3ccc(C(N)=O)cc3)cc2)c1)C(=O)Nc1ccncc1", "logP": 2.56}
{"molecule": "CNC(=O)[C@@H](NC(=O)[C@@H](CC(=O)O)n1ccc(-c2ccc(-c3ccccc3)cc2)c1)C(C)(C)C [Example 1(e)]", "logP": 1.19}
{"molecule": "CNC(=O)[C@@H](NC(=O)[C@@H](CC(=O)O)n1ccc(-c2ccc(-c3ccc(C(N)=O)cc3)cc2)c1)C(C)(C)C [Example 5(e)]", "logP": 1.71}
{"molecule": "CNC(=O)[C@@H](NC(=O)[C@@H](CC(=O)O)n1ccc(-c2ccccc2)c1)C(C)(C)C", "logP": -0.83}
{"molecule": "CNC(=O)[C@@H](NC(=O)[C@@H](CC(=O)O)n1ccc(-c2ccc(-c3ccc(C#N)cc3)cc2)c1)C(C)(C)C", "logP": 3.41}

Continue with the molecule presented below.
INPUT: logP lookup needed for `O=C(O)C[C@H](C(=O)N[C@H]1Cc2cn(c3ccccc23)CCOCCNC1=O)n1ccc(-c2ccccc2)c1` , thanks.
OUTPUT: -0.97
